The origin of these recorded values is patent US20250250357A1.

Biological target: T1, human MSLN-hFc recombinant protein (human, UniProt Q13421 296-580)
T1 construct: Captured by an anti-human IgG antibody on the chip; also called human MSLN protein; Acro MSN-H5253
T1 sequence (Q13421 other isoform, or with tags, fused parts or gaps): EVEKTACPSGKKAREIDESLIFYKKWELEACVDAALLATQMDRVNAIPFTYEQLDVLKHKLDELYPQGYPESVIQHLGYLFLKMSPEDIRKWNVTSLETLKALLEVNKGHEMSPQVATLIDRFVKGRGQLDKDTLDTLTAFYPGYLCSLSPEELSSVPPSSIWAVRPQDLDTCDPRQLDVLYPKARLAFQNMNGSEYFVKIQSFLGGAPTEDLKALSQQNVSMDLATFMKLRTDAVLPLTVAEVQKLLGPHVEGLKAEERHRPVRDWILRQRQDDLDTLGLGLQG
Assay: SPR (Biacore 8K), MSLN-hFc captured, antibody injected
Assign koff to each entry below.
Kindly answer with a numeric value in s⁻¹, unit omitted.

Entry F3.80.22-H10 (scFv, not shown: small tags and cut ends, also called S009-F3.80.22 humanized antibody VL2 + VH2) scFv: DIVMTQTPLSLPVTPGEPASISCRSSQSLEHNNGNTYLHWFLHKPGQSPQLLIYKVSNRFSGVPDRFSGSGSGTDFTLKISRVEAEDVGVYYCSQSTHVPFTFGQGTKLEIKGGGGSGGGGSGGGGSEVQLVQSGAEVKKPGATVKISCKASGYTFTDYEIHWVQQAPGKGLEWMGAFDPEIGGSAYNQKFKDRVTITADKSTSTAYMELSSLRSEDTAVYYCTDYYGSSSGYFDVWGQGTTVTVSS has what koff?
0.000177

Queued: F7.33.24-H2 (scFv, not shown: small tags and cut ends, also called S009-F7.33.24 humanized antibody VH1 + VL2) scFv: EVQLVQSGAEVKKPGASVKVSCKASGYTFTSYWMHWVRQAPGQRLEWMGNVNPSNGGSNYNEKFKNRVTITVDKSASTAYMELSSLRSEDTAVYYCAPHYIGSRPGFAYWGQGTLVTVSSGGGGSGGGGSGGGGSDIVMTQTPLSLSVTPGQPASISCKASQNVGTNIAWYLQKPGQSPQALIYSASYRYSGVPDRFSGSGSGTDFTLKISRVEAEDVGVYYCQQYNSYPLTFGGGTKVEIK
0.000466

Queued: F7.33.24-H8 (scFv, not shown: small tags and cut ends, also called S009-F7.33.24 humanized antibody VH2 + VL2) scFv: EVQLVQSGAEVKKPGASVKVSCKASGYTFTSYWMHWVRQAPGQGLEWMGNVNPSNGGSNYNEKFKNRVTITVDKSASTAYMELSSLRSEDTAVYYCAPHYIGSRPGFAYWGQGTLVTVSSGGGGSGGGGSGGGGSDIVMTQTPLSLSVTPGQPASISCKASQNVGTNIAWYLQKPGQSPQALIYSASYRYSGVPDRFSGSGSGTDFTLKISRVEAEDVGVYYCQQYNSYPLTFGGGTKVEIK
0.000529
